Data credit: ChEMBL document CHEMBL1765089

Listing of recorded IC50 by entry.
- targetUnderTest: Polyunsaturated fatty acid 5-lipoxygenase (Homo sapiens, UniProt P09917)
- Sequence (P09917 whole entry): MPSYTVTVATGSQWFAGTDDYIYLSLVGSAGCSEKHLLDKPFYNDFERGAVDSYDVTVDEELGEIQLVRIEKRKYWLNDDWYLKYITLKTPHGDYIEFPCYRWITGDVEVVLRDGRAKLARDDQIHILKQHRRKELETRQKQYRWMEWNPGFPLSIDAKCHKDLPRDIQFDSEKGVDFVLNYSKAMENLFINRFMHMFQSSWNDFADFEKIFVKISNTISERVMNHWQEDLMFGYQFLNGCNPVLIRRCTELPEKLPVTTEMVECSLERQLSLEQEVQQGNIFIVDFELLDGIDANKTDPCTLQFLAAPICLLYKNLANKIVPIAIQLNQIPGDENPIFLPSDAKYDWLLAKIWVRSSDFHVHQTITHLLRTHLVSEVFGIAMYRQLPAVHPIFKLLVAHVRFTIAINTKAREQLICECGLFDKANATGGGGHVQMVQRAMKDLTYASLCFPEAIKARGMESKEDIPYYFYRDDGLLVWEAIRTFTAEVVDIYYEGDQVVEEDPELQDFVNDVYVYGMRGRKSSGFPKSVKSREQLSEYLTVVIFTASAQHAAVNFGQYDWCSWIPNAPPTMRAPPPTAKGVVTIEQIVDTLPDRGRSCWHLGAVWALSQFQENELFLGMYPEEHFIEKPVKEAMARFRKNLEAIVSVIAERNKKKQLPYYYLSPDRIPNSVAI
- experimentNotes: Inhibition of 5-lipoxygenase in human polymorphonuclear leukocytes assessed as inhibition of LTB4 production preincubated for 15 mins measured after 10 mins by HPLC method
- Format: cell-based
- experimentalContext: pooled result: one value given for 2 cell lines, strains, targets or settings
metric: IC50 (nM)

1) COc1ccc(/C=C2\SC(c3ccc(C)cc3)=NC2=O)c(OC)c1OC = 2450
2) COc1cc(Cl)cc(/C=C2\SC(c3ccccc3)=NC2=O)c1O = 650
3) COc1ccc(/C=C2\SC(c3ccc(C(C)=O)cc3)=NC2=O)cc1 = 550
4) CCOc1cc(/C=C2\SC(c3ccc(C)cc3)=NC2=O)cc(Cl)c1O = 2900
5) Cc1ccc(C2=NC(=O)/C(=C/c3ccccc3)S2)cc1 = 730
6) COc1ccc(/C=C2\SC(c3ccc(Cl)cc3)=NC2=O)cc1 = 280
7) COc1ccc(OC)c(/C=C2\SC(c3ccc(C)cc3)=NC2=O)c1 = 350
8) O=C1N=C(c2ccccc2)S/C1=C\c1c2ccccc2cc2ccccc12 = 4300
9) COc1ccc(/C=C2\SC(c3ccc(N)cc3)=NC2=O)cc1 = 1930
